- Test system: human Edg-1 receptor (Homo sapiens)
- Construct: expressed in transfected cells; membrane preparation
- Sequence (P21453 whole entry): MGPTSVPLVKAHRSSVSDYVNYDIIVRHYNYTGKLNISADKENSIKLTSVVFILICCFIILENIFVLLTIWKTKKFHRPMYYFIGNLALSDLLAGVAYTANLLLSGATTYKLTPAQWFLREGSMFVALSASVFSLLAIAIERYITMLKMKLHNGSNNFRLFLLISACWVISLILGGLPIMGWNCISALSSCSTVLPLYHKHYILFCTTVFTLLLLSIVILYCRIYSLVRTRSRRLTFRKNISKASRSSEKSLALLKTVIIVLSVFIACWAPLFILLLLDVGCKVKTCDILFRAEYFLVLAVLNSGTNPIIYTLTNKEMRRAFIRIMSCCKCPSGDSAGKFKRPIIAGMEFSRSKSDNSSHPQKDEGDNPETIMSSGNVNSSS
- Experimental protocol: GTP-γ-S assay using human Edg-1 receptors (scintillation proximity assay, membrane preparation from CHO Flp-In cell line)
- Assay type: biochemical
- Setup conditions: example compound at 10 μM; relative to 10 μM S1P; GTP-γ-S SPA, human Edg-1 membranes
Reported endpoint: % Activation (Edg-1 receptor activation in percent of the activation by 10 μM S1P) (%)

smiles_code=CCCOc1nc(Cc2ccc(Cl)cc2)nc2oc(-c3cc(C)c(OCCCNCCC(=O)OC(C)(C)C)c(C)c3)nc12 readout_value=101
smiles_code=CCCOc1nc(CN2CCCC2)nc2oc(-c3cccc(F)c3)nc12 readout_value=85
smiles_code=CCCOc1nc(CN2CCOCC2)nc2oc(-c3cc(F)cc(F)c3)nc12 readout_value=115
smiles_code=CCCOc1nc(Cc2ccc(Cl)cc2)nc2oc(-c3ccc(Cl)c(C)c3)nc12 readout_value=87
